Please respond with reported polymerase ribozyme fitness (log ratio) for every item in the list.
B1: TPR 5TU (parent)
chain: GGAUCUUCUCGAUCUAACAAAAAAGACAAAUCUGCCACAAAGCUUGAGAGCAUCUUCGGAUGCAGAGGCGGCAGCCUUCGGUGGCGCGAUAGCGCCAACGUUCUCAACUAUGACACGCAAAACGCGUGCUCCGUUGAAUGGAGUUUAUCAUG

# Variants of: B1
# Protocol text: polymerase ribozyme fitness, log enrichment relative to wild type (log ratio); higher = more active; in vitro selection for triplet polymerase activity
This sample holds only a part of the variants without activity.
One number for each entry.

Worked examples follow.
G59U A60U | -0.703
C51U G58U U82G C96U | -0.59
U4G A73G A97G | 0.0284
A19G C85G | -2.84
A26C C87U A122G A142G | -3.94
G50C G84A | -3.25
C93U G128C | -3.31
C85A C96U A119C | -0.783

Batch request: polymerase ribozyme fitness (log ratio) for each of the following variants.
1. U33A C75G U78A U101A G152U
2. A41C C51U
3. A49G U53A U144G
4. C32U U82C
5. C35G
6. C18U G84A A113G C114U
7. G34A A47U G50A C63U
8. A52G G59A G92A

1. -4.02
2. -0.722
3. -0.883
4. -1.74
5. -3.25
6. -2.6
7. -2.2
8. -3.59

Batch request: polymerase ribozyme fitness (log ratio) for each of the following variants.
1. U4C C51U C96A A121C U134A
2. C69U A73U
3. A40C C99U

1. -3.3
2. -2.64
3. 0.519

Batch request: polymerase ribozyme fitness (log ratio) for each of the following variants.
1. U55A C85U
2. C85U A89C C93U C149U

1. -0.644
2. -3.26

Batch request: polymerase ribozyme fitness (log ratio) for each of the following variants.
1. A40U G94A G126A
2. A22U G50C
3. A49G U53A
4. A60G G83A G133C
5. C14G U56A A73G U135C

[-0.19, -2.99, -1.54, -1, -4.12]

Batch request: polymerase ribozyme fitness (log ratio) for each of the following variants.
1. A17C C57U C93A U101G U144A
2. C38A
3. U6G G80A U82G G141U
4. C38U C105G G141U
5. C93U C99G G136A U145G
6. C76A A89C

1. -2.86
2. -0.151
3. 0.34
4. -1.54
5. -1.59
6. -0.238

Batch request: polymerase ribozyme fitness (log ratio) for each of the following variants.
1. C105U G124U
2. C85G G141U U146A
3. A49U A60U G81U A106G C118A U134C
4. C38A U53A C87U
5. U55A C96U U127C U134C
6. G48C U102G
7. U55A C85A C125A

1. -0.374
2. -0.46
3. -3.51
4. -1.39
5. -3.3
6. -2.42
7. -1.75

Batch request: polymerase ribozyme fitness (log ratio) for each of the following variants.
1. G48A U55A
2. C18A A39C G58C G84A U145G
3. C116U U146A
4. C103U U134A
5. A52G C93G
6. C105U A138U
7. U55C U61A U82A

1. -1.14
2. -3.36
3. -0.753
4. -2.39
5. -3.95
6. -2.82
7. -2.36

Origin of measurements: the RNAGym collection of RNA variant scans (doi:10.1073/pnas.2313332121)
